This section presents variants with their documented polymerase ribozyme fitness (log ratio) values.
B1: TPR t1 (parent)
chain: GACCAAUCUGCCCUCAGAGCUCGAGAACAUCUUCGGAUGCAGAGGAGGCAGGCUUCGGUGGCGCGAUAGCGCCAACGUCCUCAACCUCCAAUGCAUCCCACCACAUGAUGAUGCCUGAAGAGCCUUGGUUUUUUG

- Variants of: B1
- assay.explanation: polymerase ribozyme fitness, log enrichment relative to wild type (log ratio); higher = more active; in vitro selection for triplet polymerase activity
Give a plain numeric answer without units written out.

Field: example entries. Status: answers known.
{"columns": ["variant.key", "polymerase ribozyme fitness (log ratio)"],
 "data": [
  ["C86G U112G", 0.00839],
  ["C49A G93C U112A", 0.173],
  ["C11A U59A", -1.59],
  ["G61U G135U", -1.65],
  ["C49A C82A", -1.17]
]}

Recorded polymerase ribozyme fitness (log ratio) for C3U C15U U106G , please? -3.3

Recorded polymerase ribozyme fitness (log ratio) for U32A A41U , please? -5.52

Recorded polymerase ribozyme fitness (log ratio) for A2C C49A , please? -1.83
